Hello, the source for this data is patent US20230242662A1, in case you need it.

Target: T1, huCD46-His (human, UniProt P15529 35-343)
T1 construct: extracellular domain; Immobilised by amine coupling on the SPR chip; It may be the same protein as the ELISA antigen; also called Human CD46-His; human CD46; not shown: His tag
T1 sequence (looked up): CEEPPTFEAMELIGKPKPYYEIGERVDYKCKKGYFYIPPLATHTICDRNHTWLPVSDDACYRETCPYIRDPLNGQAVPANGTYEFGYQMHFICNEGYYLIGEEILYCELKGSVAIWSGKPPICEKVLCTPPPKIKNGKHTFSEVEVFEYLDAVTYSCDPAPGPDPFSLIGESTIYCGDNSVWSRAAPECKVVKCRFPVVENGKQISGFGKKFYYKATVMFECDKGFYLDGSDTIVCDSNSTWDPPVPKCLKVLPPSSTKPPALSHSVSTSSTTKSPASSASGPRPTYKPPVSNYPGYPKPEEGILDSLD
Assay: SPR, huCD46-His immobilised, antibody as analyte, pH 6.0
measured-quantity: koff (s⁻¹)
# unit: s⁻¹ | format: bare number

Q. What koff value was documented for this binder, BA-133-04-02 (antibody, V domains shown, also called CPE hit BA133-04-02) VH: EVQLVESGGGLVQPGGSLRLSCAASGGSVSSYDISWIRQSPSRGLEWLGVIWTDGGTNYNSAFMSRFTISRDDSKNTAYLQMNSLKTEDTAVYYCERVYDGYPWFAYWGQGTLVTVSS VL: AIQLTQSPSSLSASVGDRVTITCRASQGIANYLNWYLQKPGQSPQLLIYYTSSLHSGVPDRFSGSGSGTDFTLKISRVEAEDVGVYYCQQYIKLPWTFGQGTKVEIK ?
A. 0.00143
